Documented AUC across a set of compounds
# measurementProtocol: In vivo pharmacokinetic analysis
# Set-up: species or system mouse
# experimentalSetup: male, C57BL/6, mouse, plasma, iv, 1 mg/kg
Numbers only here, please. The scale is µM·h.

INSERT INTO measurements (compound, datavalue) VALUES
  ('CNC(=O)c1ccc(-c2cnn3ccc(C(=O)N(C)c4ccc(Cl)c(C(=O)OC)c4)cc23)cc1 [EDI048]', 0.668);

compound CNC(=O)c1ccc(-c2cnn3ccc(C(=O)N(C)c4ccc(Cl)c(C(=O)O)c4)cc23)cc1 [Compound 6] , AUC observed: 1.19

###

# measurementProtocol: Neonatal calf pharmacokinetics
# Type: in vivo
# experimentalSetup: bovine, plasma, po, 10 mg/kg, infected calves with diarrhea
metricName: Tmax (h)
Numbers only here, please. The scale is h.

compound CNC(=O)c1ccc(-c2cnn3ccc(C(=O)N(C)c4ccc(Cl)c(C(=O)OC)c4)cc23)cc1 [EDI048] , Tmax observed: 12

###

# measurementProtocol: 2 weeks GLP rat toxicology study with toxicokinetics
# Format: in vivo
# experimentalSetup: both, Wistar, plasma, oral, Tmax, rat toxicity study
metricName: Tmax (min)
Numbers only here, please. The scale is min.

molecule CNC(=O)c1ccc(-c2cnn3ccc(C(=O)N(C)c4ccc(Cl)c(C(=O)OC)c4)cc23)cc1 , Tmax observed: 30

###

# measurementProtocol: Plasma stability
# Type: in vitro ADME
# experimentalSetup: mouse, Plasma T1/2, rodent plasma
metricName: half-life

compound CNC(=O)c1ccc(-c2cnn3ccc(C(=O)N(C)c4ccc(Cl)c(C(=O)OC)c4)cc23)cc1 , half-life observed: 12 to 15 min

###

# Test system: P-glycoprotein (MDR1)
# measurementProtocol: MDCK MDR1 permeability and efflux
# Type: in vitro ADME
# experimentalSetup: dog, MDCK-MDR1
Documented efflux ratio across a set of molecules
Answer with a bare number; do not write a unit.

Consider the worked cases shown below.
INSERT INTO assay_data (molecule, metricname, datavalue) VALUES
  ('CCOC(=O)CN(C(=O)c1ccn2ncc(-c3ccc(C(=O)NC)cc3)c2c1)c1ccc(Cl)cc1', 'efflux ratio', 0.94),
  ('CNC(=O)c1ccc(-c2cnn3ccc(C(=O)N(C)c4ccc(Cl)c(C(=O)O)c4)cc23)cc1', 'efflux ratio', 1.86),
  ('CNC(=O)c1ccc(-c2cnn3ccc(C(=O)N(C)c4ccc(Cl)c(C(=O)OC)c4)cc23)cc1', 'efflux ratio', 1.62);

molecule CNC(=O)c1ccc(-c2cnn3ccc(C(=O)N(CC(=O)O)c4ccc(Cl)cc4)cc23)cc1 , efflux ratio observed: 1.85

molecule CN(C(=O)c1ccn2ncc(-c3ccc(C(N)=O)cc3)c2c1)c1ccc(C#N)cn1 [KDU731, reference compound] , efflux ratio observed: 7.93

molecule COC(=O)c1cc(Cl)ccc1N(C)C(=O)c1ccn2ncc(-c3ccc(C(N)=O)cc3)c2c1 , efflux ratio observed: 6.15

###

# targetOrTestSystem: hNav1.5 (Homo sapiens, UniProt Q14524)
# Sequence (Q14524 whole entry): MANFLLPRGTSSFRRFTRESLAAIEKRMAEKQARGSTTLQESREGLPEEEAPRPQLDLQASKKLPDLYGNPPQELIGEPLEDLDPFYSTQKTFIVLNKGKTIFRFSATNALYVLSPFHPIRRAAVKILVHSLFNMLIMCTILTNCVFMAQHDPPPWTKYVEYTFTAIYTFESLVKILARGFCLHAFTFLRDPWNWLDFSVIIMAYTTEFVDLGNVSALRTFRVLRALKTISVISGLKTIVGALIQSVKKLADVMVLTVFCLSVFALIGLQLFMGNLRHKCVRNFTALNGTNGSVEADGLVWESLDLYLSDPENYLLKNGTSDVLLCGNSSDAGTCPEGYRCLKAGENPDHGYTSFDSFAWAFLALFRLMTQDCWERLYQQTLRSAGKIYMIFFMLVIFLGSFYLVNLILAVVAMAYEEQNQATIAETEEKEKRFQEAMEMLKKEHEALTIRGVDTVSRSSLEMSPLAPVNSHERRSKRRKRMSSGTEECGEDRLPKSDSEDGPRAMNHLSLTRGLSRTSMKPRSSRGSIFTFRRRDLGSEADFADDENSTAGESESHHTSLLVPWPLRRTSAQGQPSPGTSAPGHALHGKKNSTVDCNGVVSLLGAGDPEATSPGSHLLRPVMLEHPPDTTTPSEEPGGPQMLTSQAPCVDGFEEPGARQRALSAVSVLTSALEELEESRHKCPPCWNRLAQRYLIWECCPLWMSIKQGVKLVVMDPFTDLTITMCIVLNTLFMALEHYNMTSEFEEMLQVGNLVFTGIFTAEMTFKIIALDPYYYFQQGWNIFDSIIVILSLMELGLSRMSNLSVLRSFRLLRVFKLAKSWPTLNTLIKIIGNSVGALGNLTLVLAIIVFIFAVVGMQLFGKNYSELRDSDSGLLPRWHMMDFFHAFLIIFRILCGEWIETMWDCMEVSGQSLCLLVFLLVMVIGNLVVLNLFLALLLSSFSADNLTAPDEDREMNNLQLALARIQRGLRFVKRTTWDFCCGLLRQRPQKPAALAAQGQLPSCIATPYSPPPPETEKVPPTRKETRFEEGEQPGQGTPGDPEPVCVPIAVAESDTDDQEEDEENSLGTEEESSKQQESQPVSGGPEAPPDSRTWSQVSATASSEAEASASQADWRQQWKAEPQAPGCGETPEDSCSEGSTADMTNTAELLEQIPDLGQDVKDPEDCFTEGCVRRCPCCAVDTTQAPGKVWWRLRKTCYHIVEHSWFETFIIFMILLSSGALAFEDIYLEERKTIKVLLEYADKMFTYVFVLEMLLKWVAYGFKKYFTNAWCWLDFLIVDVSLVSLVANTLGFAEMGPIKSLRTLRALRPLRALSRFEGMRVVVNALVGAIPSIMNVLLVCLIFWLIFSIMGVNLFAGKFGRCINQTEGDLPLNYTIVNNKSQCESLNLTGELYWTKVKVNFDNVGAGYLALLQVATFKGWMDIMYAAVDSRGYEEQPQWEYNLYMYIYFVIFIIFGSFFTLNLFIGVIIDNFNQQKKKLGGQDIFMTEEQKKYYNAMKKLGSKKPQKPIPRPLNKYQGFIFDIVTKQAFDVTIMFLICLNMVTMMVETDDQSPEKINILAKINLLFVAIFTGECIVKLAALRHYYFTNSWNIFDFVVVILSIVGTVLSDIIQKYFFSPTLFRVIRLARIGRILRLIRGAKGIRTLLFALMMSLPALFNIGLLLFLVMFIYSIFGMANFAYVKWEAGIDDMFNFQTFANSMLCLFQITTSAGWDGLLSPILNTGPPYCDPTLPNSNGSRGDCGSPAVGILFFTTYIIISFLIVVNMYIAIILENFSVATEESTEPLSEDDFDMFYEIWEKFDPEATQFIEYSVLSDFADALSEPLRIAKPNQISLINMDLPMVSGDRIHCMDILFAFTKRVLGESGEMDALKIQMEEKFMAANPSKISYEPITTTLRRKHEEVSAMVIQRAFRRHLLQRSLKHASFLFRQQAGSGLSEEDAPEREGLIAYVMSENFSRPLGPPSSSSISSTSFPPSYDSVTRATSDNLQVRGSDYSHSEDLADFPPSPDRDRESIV
# measurementProtocol: Patch clamp Nav1.5 Quattro
pIC50: −log10 of the molar value.
metricName: pIC50

INSERT INTO assay_data (compound, datavalue) VALUES
  ('CNC(=O)c1ccc(-c2cnn3ccc(C(=O)N(C)c4ccc(Cl)c(C(=O)OC)c4)cc23)cc1 [EDI048]', '< 4.30');

# input for lookup
compound CN(C(=O)c1ccn2ncc(-c3ccc(C(N)=O)cc3)c2c1)c1ccc(C#N)cn1 [KDU731, reference compound] , pIC50 observed: < 4.30
